Cited source for all entries: PubChem BioAssay

- EXPERIMENTAL TARGET: Left-right determination factor 2 (Homo sapiens)
- METHOD DESCRIPTION: LEFTY2 binders on small-molecule microarrays, primary screen, biochemical, small-molecule microarray, 635 nm fluorescence scan (AID 1110)
- SETTINGS: LEFTY2 binding, higher = more signal
Collected composite z-score values appear next to each entry.

COMPOUND	composite z-score
CC(C)(C)OC(=O)CC[C@]1(C(=O)NCc2ccccc2)COC(c2ccc(OCCCO)cc2)=N1	-0.632
CN1C=C(C(=O)OCCS(C)(=O)=O)C(C(=O)OCCS(C)(=O)=O)=CC(CCCO)=CC1c1cccs1 (stereo unspecified)	0.716
COc1ccc([Si](C)(C)[C@@H]2[C@@H](CCn3cc(CCO)nn3)O[C@]3(C(=O)N(Cc4ccc(N5C(=O)c6cccc7cccc5c67)cc4)c4ccccc43)[C@H]2C)cc1	0.316
[N-]=[N+]=Nc1ccccc1[C@H]1OC(c2ccc(OCCCO)cc2)=N[C@@]1(Cc1ccccc1)C(N)=O	0.172
CC(C)C(CO)N1C(=O)[C@@H]2[C@H]3C(=O)OCC=C[C@H]3OC23C=CCN(Cc2ccccc2)C(=O)[C@@H]13 (stereo partly specified)	-0.275
CN(C)CCCC[C@@H]1NC(=O)[C@@H]2C[C@H](C(=O)NCCCCCNC(=O)CS)[C@H](c3cccc(OCCO)c3)N2C1=O	1
O=C(N1CCCCC1)[C@@]1(Cc2ccccc2)N=C(c2ccc(OCCCO)cc2)O[C@H]1c1ccccc1	-0.458
COC(=O)C1=CC(CCCO)=CC(C2CC2)N(Cc2cc3c(cc2Br)OCO3)C=C1C(=O)OC (stereo unspecified)	-0.998
CCCCCCC#C[Si](O[C@H](c1ccccc1)c1cn(Cc2ccccc2)nn1)(C(C)C)C(C)C	0.367
CCCC[C@@H](O)C1=C(C)C[C@H]2C(=O)N(C)C(=O)[C@H]2[C@H]1CO	0.322
C#CCN1C(C(=O)OCC)OC[C@H]1c1ccccc1 (stereo partly specified)	0.677
COCCCN1C(=O)[C@@]2(Cc3ccccc31)c1ccccc1C(=O)N(Cc1ccccc1Cl)[C@H]2c1ccc(CO)cc1	-0.222
COc1ccc(C#Cc2ccc3c(c2)[C@]2(C(=O)N3)[C@H](c3ccc(O)cc3)N3[C@H](c4ccccc4)[C@H](c4ccccc4)OC(=O)[C@H]3[C@@H]2C(=O)N2CCN(c3ncccn3)CC2)cc1	-0.0042
O=C(NC1CC1)[C@@H]1c2ccccc2C(=O)N(Cc2ccccc2C(F)(F)F)[C@H]1c1ccc(CO)cc1	0.319
NCCCCCCNC(=O)[C@@H]1C[C@@H]2C(=O)N[C@@H](Cc3ccccc3)C(=O)N2[C@@H]1c1ccc(O)cc1	0.093
C=C(C(=O)CC[C@H](OC(C)=O)c1ccc(CO)o1)C(C)C	-0.586

###

- EXPERIMENTAL TARGET: Concanavalin-A (Canavalia ensiformis) (UniProt P02866)
- Sequence (P02866 whole entry, looked up): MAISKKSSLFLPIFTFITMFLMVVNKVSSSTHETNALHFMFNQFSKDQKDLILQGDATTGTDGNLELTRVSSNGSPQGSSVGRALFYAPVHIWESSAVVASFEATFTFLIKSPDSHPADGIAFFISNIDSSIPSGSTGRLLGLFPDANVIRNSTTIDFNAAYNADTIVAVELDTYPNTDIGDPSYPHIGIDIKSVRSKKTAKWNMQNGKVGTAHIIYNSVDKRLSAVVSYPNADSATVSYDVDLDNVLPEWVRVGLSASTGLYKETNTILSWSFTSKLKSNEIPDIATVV
- METHOD DESCRIPTION: ConA small-molecule binders, primary screen, artefact control for SMM control protein annotation, biochemical, small-molecule microarray, Alexa647 label, 635 nm (AID 1127);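 further: z combines 667 nm emission intensity with signal-to-noise across three replicate slides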
- SETTINGS: ConA-A647 binding fluorescence, higher = more signal

COMPOUND	composite z-score
C=CCN1C(=O)[C@]2(O[C@H](CCn3cc([C@H](O)c4ccccc4)nn3)[C@@H]([Si](C)(C)c3ccc(OC)cc3)[C@@H]2C)c2cc(N3CCOC3=O)ccc21	0.804
CC(C)C[C@@H]1NC(=O)[C@@H]2C[C@H](C(=O)NCCCCCNC(=O)CS)[C@H](c3cccc(OCCO)c3)N2C1=O	1.18
CCOC(=O)C[C@H]1[C@H](OC(=O)c2ccc(C(=O)c3ccccc3)cc2)[C@@H](NC(=O)Cc2ccc(OC)cc2)c2cc(OCCCO)ccc2N1C(=O)Cc1ccc(OC)cc1	1.01
C=CCNC(=O)[C@@H]1[C@H]2C(=O)O[C@H](c3ccccc3)[C@H](c3ccccc3)N2[C@H](c2ccc(O)cc2)[C@@]12C(=O)Nc1ccc(C#Cc3ccc(OC)cc3)cc12	1.12
C=CC[C@]1(C(=O)N2CCCCC2)COC(c2ccc(OCCCO)cc2)=N1	-1.46
C=C(COC)/C(=C/C[C@H](OC(C)=O)c1ccc(CO)o1)c1cnc2ccccc2c1	1.09
C#CCOc1ccc(C[C@H]2C(=O)O[C@H](Cc3ccccc3)[C@H](/C=C/C3CC3)N2CC#C)cc1	-0.224
CC(C)(C)OC(=O)CC[C@@]12N=C(c3ccc(OCCCO)cc3)O[C@@H]1c1ccccc1CN(Cc1ccccc1)C2=O	1.1
O=C(NC1CC1)[C@@H]1c2ccccc2C(=O)N(Cc2ccccc2C(F)(F)F)[C@H]1c1ccc(CO)cc1	1.08
C=CCNC(=O)[C@@H]1[C@H]2C(=O)O[C@H](c3ccccc3)[C@H](c3ccccc3)N2[C@H](c2ccc(O)cc2)[C@@]12C(=O)N(C(=O)OCCOC)c1ccc(C#Cc3ccc(OC)cc3)cc12	1.12
NCCCCCCNC(=O)[C@@H]1C[C@@H]2C(=O)N[C@@H](Cc3ccccc3)C(=O)N2[C@@H]1c1ccc(O)cc1	1.12
COCCOC(=O)N1C(=O)[C@@]2(c3ccccc31)[C@H](C(=O)Nc1nc3ccccc3s1)[C@H]1C(=O)O[C@H](c3ccccc3)[C@H](c3ccccc3)N1[C@@H]2c1ccc(O)cc1	1.21
CC(C)C(=C=CC[C@@H](O)c1ccc(CO)o1)CCO	0.349
CC1CC/C=C\[C@H]2OC34C=CCN(C(C)C)C(=O)[C@H]3N(C(CO)C(C)C)C(=O)[C@@H]4C2C(=O)O1 (some centres undefined)	-2.39
